Value source: patent US20230043863A1

assay: Balb/C mouse pharmacokinetics (plasma, colon, ileum); format: in vivo; conditions: male, plasma, po, Balb/C mice, p.o. 5 mg/kg, blood, read-out: Half life period t1/2 (converted)
Entries whose half-life is below 2 h take MET; entries at or above 2 h take NOT MET.

INPUT: For this compound, is half-life lower than 2 h? `Cc1cc(Nc2nc(N[C@@H]3C[C@H]4CCC[C@@H](C3)N4C(=O)CN3CCOCC3)nc3ccsc23)n[nH]1`
OUTPUT: NOT MET

INPUT: Does `Cc1cnc(Nc2cc3ncccc3c(N[C@@H]3C[C@H]4CC[C@@H](C3)N4CCC#N)n2)s1` have half-life strictly under 2 h?
OUTPUT: MET

INPUT: Determine whether this compound shows half-life lower than 2 h (ties excluded): `Cc1cc(Nc2nc(N[C@@H]3C[C@H]4CC[C@@H](C3)N4CCC#N)nc3cc(Cl)ccc23)n[nH]1`
OUTPUT: MET

INPUT: Is 2 h strictly greater than the compound's reported half-life? compound: `Cc1cc(Nc2nc(NC3CCN(CCC#N)CC3)nc3sccc23)n[nH]1`
OUTPUT: MET

====

experiment: Balb/C mouse pharmacokinetics (plasma, colon, ileum); assay type: in vivo; details: male, po, Balb/C mice, p.o. 5 mg/kg, colon, read-out: Time to peak tmax
Property: Tmax; scope: individual molecules

Example entries begin here.
Cc1cc(Nc2nc(N[C@@H]3C[C@@H]4CN(CCC#N)C[C@@H]4C3)nc3ccsc23)n[nH]1 [Embodiment 299]; 7 h
Cc1cc(Nc2nc(N[C@@H]3C[C@H]4CCC[C@@H](C3)N4C(=O)c3ccccn3)nc3sccc23)n[nH]1 [Embodiment 260]; 3 h
Cc1cc(Nc2nc(N[C@@H]3C[C@H]4CCC[C@@H](C3)N4CCC#N)nc3scnc23)n[nH]1 [Embodiment 278]; 5 h
Cc1cc(Nc2nc(N[C@@H]3C[C@H]4CCC[C@@H](C3)N4S(=O)(=O)N3CC(C#N)C3)nc3sccc23)n[nH]1 [Embodiment 238]; 3 h
Cc1cc(Nc2nc(N[C@@H]3C[C@H]4CCC[C@@H](C3)N4S(=O)(=O)c3ccccn3)nc3sccc23)n[nH]1 [Embodiment 267]; 5 h
Cc1cc(Nc2nc(N[C@@H]3C[C@H]4CC[C@@H](C3)N4CCC#N)nc3cc(-c4cccnc4)ccc23)n[nH]1 [Embodiment 179]; 1 h

Continue with the next molecule.
INPUT: What value of Tmax has been recorded for this entry: Cc1cc(Nc2nc(N[C@@H]3C[C@H]4CC[C@@H](C3)N4CCC#N)nc3c2cnn3C)n[nH]1 [Embodiment 295]
OUTPUT: 3 h

====

target: TYK2 (Homo sapiens)
Sequence (P29597 whole entry): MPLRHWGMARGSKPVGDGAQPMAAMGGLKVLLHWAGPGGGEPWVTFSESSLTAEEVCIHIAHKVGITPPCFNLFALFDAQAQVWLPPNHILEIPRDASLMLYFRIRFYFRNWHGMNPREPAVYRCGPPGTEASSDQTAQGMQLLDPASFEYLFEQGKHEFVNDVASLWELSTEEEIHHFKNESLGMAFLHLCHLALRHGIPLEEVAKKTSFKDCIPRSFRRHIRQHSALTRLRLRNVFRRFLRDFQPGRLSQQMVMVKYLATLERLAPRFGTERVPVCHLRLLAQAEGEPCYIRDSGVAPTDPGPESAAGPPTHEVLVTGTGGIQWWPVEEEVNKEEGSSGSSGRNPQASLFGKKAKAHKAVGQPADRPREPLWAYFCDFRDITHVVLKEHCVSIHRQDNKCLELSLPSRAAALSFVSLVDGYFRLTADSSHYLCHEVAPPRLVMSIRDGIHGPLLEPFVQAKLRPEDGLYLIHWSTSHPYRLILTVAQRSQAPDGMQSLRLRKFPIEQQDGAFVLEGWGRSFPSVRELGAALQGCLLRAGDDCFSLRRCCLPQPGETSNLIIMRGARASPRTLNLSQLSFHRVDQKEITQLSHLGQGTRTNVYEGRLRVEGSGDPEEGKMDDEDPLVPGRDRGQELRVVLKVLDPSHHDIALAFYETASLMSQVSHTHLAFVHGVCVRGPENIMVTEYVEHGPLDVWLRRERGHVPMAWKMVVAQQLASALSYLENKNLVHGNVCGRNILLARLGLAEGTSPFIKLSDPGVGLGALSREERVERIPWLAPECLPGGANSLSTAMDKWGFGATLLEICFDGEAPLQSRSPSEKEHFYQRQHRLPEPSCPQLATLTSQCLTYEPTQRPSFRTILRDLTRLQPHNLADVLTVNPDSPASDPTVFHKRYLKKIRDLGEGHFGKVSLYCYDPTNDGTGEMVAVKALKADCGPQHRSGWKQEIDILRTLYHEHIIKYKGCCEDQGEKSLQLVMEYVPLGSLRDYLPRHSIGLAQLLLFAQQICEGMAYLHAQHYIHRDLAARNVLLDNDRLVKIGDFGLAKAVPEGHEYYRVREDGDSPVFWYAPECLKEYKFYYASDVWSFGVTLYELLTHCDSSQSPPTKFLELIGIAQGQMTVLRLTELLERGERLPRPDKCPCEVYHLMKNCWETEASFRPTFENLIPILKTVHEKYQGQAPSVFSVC
Our labelling divides records by IC50 into ranges: low bin: < 0.5 nM; mid bin: ≥ 0.5 nM and < 1 nM; high bin: ≥ 1 nM

Example cases with answers are listed next.
COc1ccc2c(Nc3cc(C)[nH]n3)nc(N(C)[C@@H]3C[C@H]4CC[C@@H](C3)N4S(=O)(=O)N3CC(C#N)C3)nc2c1; low bin
Cc1cc(Nc2nc(N[C@@H]3C[C@H]4CC[C@@H](C3)N4CCC#N)nc3cc(-c4ccccc4)ccc23)n[nH]1; low bin

INPUT: Exam item: assign `N#CCCN1[C@@H]2CCC[C@H]1C[C@H](Nc1nc(Nc3ncc(CO)s3)cc3ncccc13)C2` to the correct category.
OUTPUT: high bin

INPUT: Record `Cc1cc(Nc2nc(NC3CCN(S(=O)(=O)N4CC(C#N)C4)CC3)nc3ccccc23)n[nH]1` — which class?
OUTPUT: high bin

INPUT: Could you tell me which band `Cc1cc(Nc2nc(N[C@@H]3C[C@H]4CC[C@@H](C3)N4CCC#N)nc3cc(-c4cnn(C5CC5)c4)ccc23)n[nH]1` belongs to?
OUTPUT: mid bin

INPUT: Bin this entry: `Cc1cc(Nc2nc(N[C@@H]3C[C@H]4CC[C@@H](C3)N4CCC#N)nc3cc(Br)ccc23)n[nH]1`
OUTPUT: low bin

INPUT: // bin(item) where item = `COc1ccc(-c2ccc3c(Nc4cc(C)[nH]n4)nc(N[C@@H]4C[C@H]5CC[C@@H](C4)N5CCC#N)nc3c2)cn1`
OUTPUT: low bin

INPUT: Which category fits this record: `Cc1cc(Nc2nc(N[C@@H]3C[C@H]4CC[C@@H](C3)N4CCC#N)nc3cc(Cl)ccc23)n[nH]1`
OUTPUT: mid bin

INPUT: Which bin should I file `Cc1cc(Nc2nc(N[C@@H]3C[C@H]4CCC[C@@H](C3)N4Cc3ccccn3)nc3sccc23)n[nH]1` under?
OUTPUT: high bin

INPUT: Quick check: band for `Cc1cc(Nc2nc(N[C@@H]3C[C@H]4CCC[C@@H](C3)N4C(=O)c3cn(C)cn3)nc3sccc23)n[nH]1`
OUTPUT: low bin

INPUT: For the record `Cc1cc(Nc2nc(N[C@@H]3C[C@H]4CC[C@@H](C3)N4CCC#N)nc3scnc23)n[nH]1` , report the class its IC50 corresponds to.
OUTPUT: high bin

INPUT: Which class does `N#CCCN1[C@@H]2CC[C@H]1C[C@H](Nc1nc(Nc3cc[nH]n3)cc3ncccc13)C2` fall in?
OUTPUT: high bin

INPUT: For `COc1ccc2c(Nc3cc(C)[nH]n3)nc(N[C@@H]3C[C@H]4CCC[C@@H](C3)N4S(=O)(=O)N3CC(C#N)C3)nc2c1` , which IC50 bin applies?
OUTPUT: low bin

====

test: Balb/C mouse pharmacokinetics (plasma, colon, ileum); type: in vivo; settings: male, po, Balb/C mice, p.o. 5 mg/kg, ileum, read-out: Time to peak tmax
readout.kind: Tmax

INPUT: Request the reported Tmax associated with `Cc1cc(Nc2nc(N[C@@H]3C[C@H]4CC[C@@H](C3)N4CCC#N)nc3cc(Br)ccc23)n[nH]1`
OUTPUT: 1 h

INPUT: Which measured Tmax value corresponds to `Cc1cc(Nc2nc(NC3CCN(CCC#N)CC3)nc3sccc23)n[nH]1` ?
OUTPUT: 1 h

INPUT: Tell me the measured Tmax of `Cc1cc(Nc2nc(N[C@@H]3C[C@H]4CC[C@@H](C3)N4CCC#N)nc3c2cnn3C)n[nH]1` , please.
OUTPUT: 3 h

INPUT: Which Tmax value belongs to `Cc1cnc(Nc2cc3ncccc3c(N[C@@H]3C[C@H]4CC[C@@H](C3)N4CCC#N)n2)s1` ?
OUTPUT: 3 h

====

test: Balb/C mouse pharmacokinetics (plasma, colon, ileum); format: in vivo; details: male, po, Balb/C mice, p.o. 5 mg/kg, ileum, read-out: Time to peak tmax
readout.kind: Tmax
Quick note: number first, unit second.

Use these answered entries as a reference point.
Cc1cc(Nc2nc(N[C@@H]3C[C@H]4CCC[C@@H](C3)N4C(=O)c3ccccn3)nc3sccc23)n[nH]1; 1 h
Cc1cc(Nc2nc(N[C@@H]3C[C@H]4CC[C@@H](C3)N4CCC#N)nc3cc(Cl)ccc23)n[nH]1; 3 h
Cc1cc(Nc2nc(N[C@@H]3C[C@H]4CC[C@@H](C3)N4S(=O)(=O)N3CC(C#N)C3)nc3cc(Cl)ccc23)n[nH]1; 1 h

INPUT: Data request, read-out Tmax, for `Cc1cc(Nc2nc(N[C@@H]3C[C@H]4CCC[C@@H](C3)N4S(=O)(=O)c3ccccn3)nc3sccc23)n[nH]1`
OUTPUT: 1 h

INPUT: I would be grateful if you could share the reported Tmax for `Cc1cc(Nc2nc(N[C@@H]3C[C@H]4CCC[C@@H](C3)N4S(=O)(=O)N3CC(C#N)C3)nc3sccc23)n[nH]1` .
OUTPUT: 1 h

INPUT: Requested read-out: Tmax. Entry: `CNCC(=O)N1[C@@H]2CCC[C@H]1C[C@H](Nc1nc(Nc3cc(C)[nH]n3)c3ccsc3n1)C2`
OUTPUT: 1 h

INPUT: Can you share its Tmax? I mean this compound: `Cc1cc(Nc2nc(N[C@@H]3C[C@H]4CC[C@@H](C3)N4S(=O)(=O)N3CC(C#N)C3)nc3ccccc23)n[nH]1`
OUTPUT: 5 h

INPUT: Which value of Tmax has been reported for `Cc1cc(Nc2nc(N[C@@H]3C[C@H]4CCC[C@@H](C3)N4C(=O)c3nccn3C)nc3sccc23)n[nH]1` in the records?
OUTPUT: 1 h

INPUT: Bench note: what Tmax did `Cc1cc(Nc2nc(N(C)[C@@H]3C[C@H]4CCC[C@@H](C3)N4C(=O)CN3CCN(C)CC3)nc3sccc23)n[nH]1` show?
OUTPUT: 3 h

INPUT: What value of Tmax has been recorded for this entry: `COc1ccc2c(Nc3cc(C)[nH]n3)nc(N[C@@H]3C[C@H]4CC[C@@H](C3)N4CCC#N)nc2c1`
OUTPUT: 1 h

INPUT: Request the reported Tmax associated with `Cc1cc(Nc2nc(N[C@@H]3C[C@H]4CCC[C@@H](C3)N4C(=O)CN3CCOCC3)nc3ccsc23)n[nH]1`
OUTPUT: 3 h

INPUT: Requested read-out: Tmax. Entry: `Cc1cc(Nc2nc(N[C@@H]3C[C@H]4CC[C@@H](C3)N4CCC#N)nc3ccsc23)n[nH]1`
OUTPUT: 1 h

INPUT: State the recorded Tmax for this entry: `Cc1cc(Nc2nc(N[C@@H]3C[C@H]4CC[C@@H](C3)N4S(=O)(=O)N3CC(C#N)C3)nc3sccc23)n[nH]1`
OUTPUT: 3 h
